FYI, the data here is from patent US20230357447A1.

# system: T1, anti-CD28 scFv (VH-linker 1-VL) (biotinylated (site not stated))
# T1 construct: Captured as biotinylated scFv on neutravidin coated plates in the phage ELISA
# T1 sequence (scFv, as listed by the source): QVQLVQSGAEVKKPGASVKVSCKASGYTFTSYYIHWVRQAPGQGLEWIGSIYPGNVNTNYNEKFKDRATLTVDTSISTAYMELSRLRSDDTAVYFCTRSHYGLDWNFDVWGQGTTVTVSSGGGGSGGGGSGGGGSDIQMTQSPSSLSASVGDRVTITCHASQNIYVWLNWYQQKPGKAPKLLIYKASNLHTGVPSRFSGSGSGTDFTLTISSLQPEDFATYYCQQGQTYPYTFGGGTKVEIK
# test_protocol: phage ELISA; scFv wells pre-incubated with soluble CD28 (competitor);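 further: crude clonal phage supernatants added to wells pretreated with soluble CD28 in blocking buffer, bound phage read via HRP-linked anti-M13 antibody, reference wells got blocking buffer only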
Think of 0.4 as a floor: if CD28 scFv signal in presence of CD28 stands on it or above, it is label 1; beneath it, label 0.

In [3]: df
Out[3]:
                                     binder  discrete_label
0  MDWCPRYLWTECFS (on phage (pIII fusion)) [Phage-303 clonal phage peptide]         label 0
1  MDWCARFVGYGCLD (on phage (pIII fusion)) [Phage-232 clonal phage peptide]         label 0
2  FDFCPTTMWTYCQH (on phage (pIII fusion)) [Phage-220 clonal phage peptide]         label 0
3  MDWCPTSFWNRCFH (on phage (pIII fusion)) [Phage-271 clonal phage peptide]         label 0
4  MDWCPKHLWNKCFN (on phage (pIII fusion)) [Phage-246 clonal phage peptide]         label 0

Please tell me: is the binder MDWCPRYLWSECFA (on phage (pIII fusion)) [Phage-254 clonal phage peptide] at or over 0.4 in terms of CD28 scFv signal in presence of CD28? label 1

Quick check: does MDWCPRDLWFACFA (on phage (pIII fusion)) [Phage-282 clonal phage peptide] have CD28 scFv signal in presence of CD28 greater than or equal to 0.4? label 1

Is it the case that MDWCPRHMWHECFA (on phage (pIII fusion)) [Phage-263 clonal phage peptide] has CD28 scFv signal in presence of CD28 reaching or exceeding 0.4? label 0

Given the entry MDWCPRYLWHECFF (on phage (pIII fusion)) [Phage-301 clonal phage peptide] , answer whether its CD28 scFv signal in presence of CD28 meets or surpasses 0.4. label 1

Has MDWCPRDRWADCFF (on phage (pIII fusion)) [Phage-225 clonal phage peptide] a recorded CD28 scFv signal in presence of CD28 greater than or equal to 0.4? label 0

Decide: CD28 scFv signal in presence of CD28 of VTSCPTTMWNRCFS (on phage (pIII fusion)) [Phage-266 clonal phage peptide] >= 0.4? label 1

Identify whether the reported CD28 scFv signal in presence of CD28 of the following binder is 0.4 or greater: MDWCPMFLWDECFN (on phage (pIII fusion)) [Phage-318 clonal phage peptide] label 0

Has IDWCPKIHWDLCYF (on phage (pIII fusion)) [Phage-276 clonal phage peptide] a recorded CD28 scFv signal in presence of CD28 greater than or equal to 0.4? label 0

Confirm if CD28 scFv signal in presence of CD28 reported for the binder MDWCPRFMWDLCFA (on phage (pIII fusion)) [Phage-265 clonal phage peptide] is 0.4 or above. label 1

Could you tell me if the measured CD28 scFv signal in presence of CD28 of WVSCLRHHWLECFH (on phage (pIII fusion)) [Phage-274 clonal phage peptide] reaches 0.4 or more? label 1

Evaluate MDWCPRFLWHECFN (on phage (pIII fusion)) [Phage-257 clonal phage peptide] : CD28 scFv signal in presence of CD28 at minimum 0.4? label 0

Would you say MDWCPRHLWHECFT (on phage (pIII fusion)) [Phage-317 clonal phage peptide] shows CD28 scFv signal in presence of CD28 at minimum 0.4? label 0

I'd appreciate it if you could say whether APWCQIISGLECLT (on phage (pIII fusion)) [Phage-230 clonal phage peptide] has CD28 scFv signal in presence of CD28 at least equal to 0.4. label 0

Confirm if CD28 scFv signal in presence of CD28 reported for the binder MDWCPRYLWHVCFY (on phage (pIII fusion)) [Phage-291 clonal phage peptide] is 0.4 or above. label 1

Reported CD28 scFv signal in presence of CD28 reaches at least 0.4 for MDWCPRDLWSVCFS (on phage (pIII fusion)) [Phage-290 clonal phage peptide] ? label 0

Please check the record MDWCPRDLWTECFS (on phage (pIII fusion)) [Phage-305 clonal phage peptide] and state if its CD28 scFv signal in presence of CD28 is at or above 0.4. label 0
